Value source: patent US20250257059A1

This document collects pIC50 values reported for full-length human PTPN2 (TC45) (1-387) (Homo sapiens (Human)).
One number for each entry, as −log10 of the molar value.

O=C1CN(c2c(O)cc(CC3CCN(Cc4ncc[nH]4)C3)cc2F)S(=O)(=O)N1 (centres unmarked) ... 8.15

Batch: pIC50 for all items listed.
1. O=C1CN(c2c(O)cc(CCN3CC4(CCCC4)C3)cc2F)S(=O)(=O)N1
2. O=C1CN(c2c(O)cc(CN3CCCC3)cc2F)S(=O)(=O)N1
3. O=C1CN(c2c(O)cc(C[C@@H]3CCCNCC3)cc2F)S(=O)(=O)N1 (single isomer, unassigned)
4. O=C1CN(c2c(O)cc(CC3CCCN(Cc4cocn4)C3)cc2F)S(=O)(=O)N1 (centres unmarked)
5. CC(C)CN1CCC(Cc2cc(O)c(N3CC(=O)NS3(=O)=O)c(F)c2)C1 (centres unmarked)
6. C[C@H]1CCN(CCc2cc(O)c(N3CC(=O)NS3(=O)=O)c(F)c2)C1

// result
8.15
7.04
7.80
7.01
7.68
8.70

// query # query: pIC50 of entry O=C1CN(c2c(O)cc(CCN3CCC4(CC3)CC4)cc2F)S(=O)(=O)N1
// result 8.70

###

target: full-length human PTPN2 (TC45) (1-387) (Homo sapiens (Human))
Sequence (P17706 other isoform, or with tags, fused parts or gaps): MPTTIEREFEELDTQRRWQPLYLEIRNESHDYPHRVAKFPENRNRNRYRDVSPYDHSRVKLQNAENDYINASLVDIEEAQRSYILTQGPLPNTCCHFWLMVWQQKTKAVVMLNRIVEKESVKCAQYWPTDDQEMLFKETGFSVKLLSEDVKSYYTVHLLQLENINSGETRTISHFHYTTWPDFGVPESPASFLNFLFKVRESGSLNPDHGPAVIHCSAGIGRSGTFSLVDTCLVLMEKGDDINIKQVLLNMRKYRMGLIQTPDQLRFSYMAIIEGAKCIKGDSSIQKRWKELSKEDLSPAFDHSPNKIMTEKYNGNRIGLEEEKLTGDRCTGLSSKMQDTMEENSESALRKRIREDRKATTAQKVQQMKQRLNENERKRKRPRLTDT
pIC50: −log10 of the molar value.
Record Met whenever pIC50 is at 8 or higher; record Not met when lower.

As a guide, the following entries are already answered.
O=C1CN(c2c(O)cc(CCN3CCC(O)CC3)cc2F)S(=O)(=O)N1 [Example 101] ... Met
CCC1CCN(CCc2cc(O)c(N3CC(=O)NS3(=O)=O)c(F)c2)C1 (centres unmarked) [Example 87] ... Met
CC(C)CCN1CCCC1CCc1cc(O)c(N2CC(=O)NS2(=O)=O)c(F)c1 (centres unmarked) [Example 67] ... Not met
CC1(C)CCN(CCc2cc(O)c(N3CC(=O)NS3(=O)=O)c(F)c2)C1 [Example 108] ... Met
CC(C)CCC1CCN(CCc2cc(O)c(N3CC(=O)NS3(=O)=O)c(F)c2)C1 (centres unmarked) [Example 88] ... Met

// query Please tell me: is the compound O=C1CN(c2c(O)ccc(CC3CCCCN3CCC(F)(F)F)c2F)S(=O)(=O)N1 (centres unmarked) [Example 77] at or over 8 in terms of pIC50?
// result Met

// query Please tell me: is the compound O=C1CN(c2c(O)cc(CC3CCN(Cc4ncco4)C3)cc2F)S(=O)(=O)N1 (centres unmarked) [Example 6] at or over 8 in terms of pIC50?
// result Not met

// query Please tell me: is the compound O=C1CN(c2c(O)cc(CC3CCCN(CCC4CCOCC4)C3)cc2F)S(=O)(=O)N1 (centres unmarked) [Example 40] at or over 8 in terms of pIC50?
// result Not met

// query Please tell me: is the compound CCCC1CCN(Cc2cc(O)c(N3CC(=O)NS3(=O)=O)c(F)c2)C1 (centres unmarked) [Example 71] at or over 8 in terms of pIC50?
// result Not met

// query Please tell me: is the compound O=C1CN(c2c(O)cc(CC3CCCN(Cc4cnco4)C3)cc2F)S(=O)(=O)N1 (centres unmarked) [Example 48] at or over 8 in terms of pIC50?
// result Not met

// query Please tell me: is the compound CCCCN1CCCC(Cc2cc(O)c(N3CC(=O)NS3(=O)=O)c(F)c2)C1 (centres unmarked) [Example 38] at or over 8 in terms of pIC50?
// result Not met

// query Please tell me: is the compound O=C1CN(c2c(O)cc(CC3CCCN(Cc4ccco4)C3)cc2F)S(=O)(=O)N1 (centres unmarked) [Example 46] at or over 8 in terms of pIC50?
// result Not met

// query Please tell me: is the compound CC(C)CCN1CCCC(Cc2cc(O)c(N3CC(=O)NS3(=O)=O)c(F)c2)C1 (centres unmarked) [Example 41] at or over 8 in terms of pIC50?
// result Not met

// query Please tell me: is the compound CC(C)CCN1CCCC[C@H]1Cc1ccc(O)c(N2CC(=O)NS2(=O)=O)c1F (single isomer, unassigned) [Example 82] at or over 8 in terms of pIC50?
// result Not met

// query Please tell me: is the compound O=C1CN(c2c(O)cc(CC3CCCN(Cc4cc[nH]c4)C3)cc2F)S(=O)(=O)N1 (centres unmarked) [Example 39] at or over 8 in terms of pIC50?
// result Not met
